# Experimental system: Protein cereblon/Histone-lysine N-methyltransferase EZH2 (Homo sapiens) (UniProt Q15910+Q96SW2)
# Sequence (Q15910 whole entry, looked up): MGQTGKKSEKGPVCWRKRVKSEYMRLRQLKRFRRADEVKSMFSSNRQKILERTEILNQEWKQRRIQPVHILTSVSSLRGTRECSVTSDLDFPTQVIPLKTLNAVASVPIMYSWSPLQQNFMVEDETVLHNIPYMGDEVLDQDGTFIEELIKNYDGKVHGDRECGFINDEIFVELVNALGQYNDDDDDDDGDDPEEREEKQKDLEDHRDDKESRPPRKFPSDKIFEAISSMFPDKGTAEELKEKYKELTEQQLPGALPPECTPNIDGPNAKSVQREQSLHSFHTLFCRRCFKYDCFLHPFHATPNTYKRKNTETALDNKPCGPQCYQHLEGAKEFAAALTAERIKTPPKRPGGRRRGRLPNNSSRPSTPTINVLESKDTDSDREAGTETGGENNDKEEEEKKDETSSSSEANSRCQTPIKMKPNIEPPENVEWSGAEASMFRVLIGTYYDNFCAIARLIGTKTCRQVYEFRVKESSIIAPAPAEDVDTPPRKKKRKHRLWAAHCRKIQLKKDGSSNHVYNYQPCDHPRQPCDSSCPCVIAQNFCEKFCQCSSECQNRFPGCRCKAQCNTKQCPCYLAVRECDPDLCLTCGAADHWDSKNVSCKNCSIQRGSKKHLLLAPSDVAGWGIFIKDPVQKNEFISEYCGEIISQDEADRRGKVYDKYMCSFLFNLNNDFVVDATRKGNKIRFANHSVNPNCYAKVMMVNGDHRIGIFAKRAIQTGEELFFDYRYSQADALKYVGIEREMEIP
# Sequence (Q96SW2 whole entry, looked up): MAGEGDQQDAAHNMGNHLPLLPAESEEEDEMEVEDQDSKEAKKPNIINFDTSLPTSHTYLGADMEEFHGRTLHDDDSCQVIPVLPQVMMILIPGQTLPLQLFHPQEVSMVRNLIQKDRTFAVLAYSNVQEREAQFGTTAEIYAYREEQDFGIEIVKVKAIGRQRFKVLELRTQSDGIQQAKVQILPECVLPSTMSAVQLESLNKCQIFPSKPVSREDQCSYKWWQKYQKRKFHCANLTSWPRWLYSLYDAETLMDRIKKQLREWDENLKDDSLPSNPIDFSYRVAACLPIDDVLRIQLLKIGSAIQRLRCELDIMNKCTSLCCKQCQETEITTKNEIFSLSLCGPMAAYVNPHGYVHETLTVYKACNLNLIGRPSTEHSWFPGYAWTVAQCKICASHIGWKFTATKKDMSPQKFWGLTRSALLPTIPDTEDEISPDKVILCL
# Protocol text: Protac activity at CRBN E3 ligase/EZH2 in human 22Rv1 cells assessed as inhibition of H3K27me3 at 0.3 uM incubated for 48 hrs by Western blot analysis
# Assay type: cell-based
Active and inactive are the calls of the source. The rule behind the calls is not given here.

{"Compound": "CCN(c1cc(-c2ccc(C(=O)NCCCCCCNC(=O)COc3cccc4c3C(=O)N(C3CCC(=O)NC3=O)C4=O)cc2)cc(C(=O)NCc2c(C)cc(C)[nH]c2=O)c1C)C1CCOCC1 (stereo not drawn)", "Activity": "Active"}
{"Compound": "CCN(c1cc(-c2ccc(C(=O)NCCOCCNc3cccc4c3C(=O)N(C3CCC(=O)NC3=O)C4=O)cc2)cc(C(=O)NCc2c(C)cc(C)[nH]c2=O)c1C)C1CCOCC1 (stereo not drawn)", "Activity": "Active"}
